- target-or-test-system: σ1 receptor (Cavia porcellus, UniProt Q60492)
- Construct: tissue Harlan Winkelmann; host or cells: guinea pig brain membranes
- Sequence (Q60492 whole entry): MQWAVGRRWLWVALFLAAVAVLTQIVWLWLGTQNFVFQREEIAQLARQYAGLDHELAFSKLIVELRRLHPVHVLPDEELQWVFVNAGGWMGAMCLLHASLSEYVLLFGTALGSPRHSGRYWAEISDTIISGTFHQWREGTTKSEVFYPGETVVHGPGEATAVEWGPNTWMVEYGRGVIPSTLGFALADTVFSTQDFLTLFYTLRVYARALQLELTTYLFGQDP
- assay-details: Receptor binding assay with [3H]-(+)-pentazocine on guinea pig brain membranes
- run-parameters: 2 nM [3H]-(+)-pentazocine; guinea pig brain membranes; given as above 1 µM or 10 µM
experimental-readout: inhibition of the σ1 receptor only at concentrations above

COc1ccc2c(c1)CCN(CCCC(=O)c1ccc(F)cc1)CC2O (stereo not shown) | above 1 µM
OC1CN([C@H]2CC[C@@H](c3ccccc3)CC2)CCc2cc(OCc3ccccc3)ccc21 (relative stereo) | above 1 µM
CC1(C)COC(CCCN2CCc3cc(OCc4ccccc4)ccc3C(O)C2)(c2ccc(F)cc2)OC1 (stereo not shown) | above 1 µM
O=C(c1ccccc1)N1CCC(N2CCc3cc(O)ccc3C(O)C2)CC1 (stereo not shown) | above 1 µM

Cited source for all entries: patent EP2246331A1
